# TARGET_DESC: Protein disulfide-isomerase (Homo sapiens) (UniProt P07237)
# Sequence (P07237 whole entry, looked up): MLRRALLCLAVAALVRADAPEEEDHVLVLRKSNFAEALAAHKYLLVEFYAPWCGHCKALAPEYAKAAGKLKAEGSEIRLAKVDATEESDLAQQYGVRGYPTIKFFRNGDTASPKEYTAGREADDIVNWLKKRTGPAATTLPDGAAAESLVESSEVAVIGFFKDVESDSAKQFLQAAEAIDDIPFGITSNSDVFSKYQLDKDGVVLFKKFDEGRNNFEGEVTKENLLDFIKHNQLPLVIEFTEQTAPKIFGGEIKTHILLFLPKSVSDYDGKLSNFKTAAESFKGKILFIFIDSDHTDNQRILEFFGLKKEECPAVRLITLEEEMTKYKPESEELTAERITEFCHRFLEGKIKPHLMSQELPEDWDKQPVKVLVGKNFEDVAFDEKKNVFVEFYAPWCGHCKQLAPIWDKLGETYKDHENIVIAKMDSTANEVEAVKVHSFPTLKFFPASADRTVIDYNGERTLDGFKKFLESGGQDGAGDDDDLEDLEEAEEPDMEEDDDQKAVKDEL
# TEST: inhibition of PDI-driven insulin aggregation – biochemical, turbidity, absorbance, cherry-picked samples, dose response (AID 602350)
# STUDY_CONDITIONS: recombinant PDI insulin aggregation, absorbance 650 nm, 90 min; series mostly up to 19.5 µM
Entries with a potency or affinity are not part of this list. Calls of active or inactive are those of the source.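 The calls were made as follows: active = absorbance falls by 30% or more versus neutral controls, with a potency fitted within twice the top valid dose; inconclusive = no clear call, values can overlap the other calls; inactive = change opposite to expected direction, plus the rest.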
MEASUREMENT_LABEL: activity change, negative = inhibition

Some solved cases for reference:
>>> recorded_measurement("CCOC(=O)c1c(CN2CCN(C)CC2)n(-c2ccccc2)c2cc(Br)c(O)cc12")
"inactive"
>>> recorded_measurement("O=c1cc(CSc2nnnn2-c2ccc(O)cc2)nc2sccn12")
"inactive"
>>> recorded_measurement("CC(=O)c1cc(-c2ccccc2)n(CC(=O)Nc2cccc(C)c2)c1C")
"inactive"
>>> recorded_measurement("O=C(NCc1ccccc1CN1CCCC1)c1cc2ccccc2o1")
"inactive"
>>> recorded_measurement("CN1C(=O)NC(c2ccccc2)C2=C1CN(c1cccc(C(F)(F)F)c1)C2=O (stereo unspecified)")
"inactive"

Q) Reported activity change, negative = inhibition for Cc1ccc(SCC(=O)c2sc(-c3ccccc3)nc2C)cc1 : what is it?
A) inactive

Q) Reported activity change, negative = inhibition for CCC1Nc2ncnc(N3CCCCC3)c2N(Cc2ccc(C)cc2)C1=O (stereo unspecified) : what is it?
A) inactive

Q) Reported activity change, negative = inhibition for Cc1cccc(C(=O)OCC(=O)N2CCCCCC2)c1O : what is it?
A) inactive

Q) Reported activity change, negative = inhibition for c1ccc(Cn2nnc3c(Nc4ccc5c(c4)OCO5)nc(C4CC4)nc32)cc1 : what is it?
A) inactive

Q) Reported activity change, negative = inhibition for CC(=O)NC(Cc1c[nH]c2ccccc12)C(=O)OCC(=O)N1CCN(S(=O)(=O)c2ccc(Cl)cc2)CC1 (stereo unspecified) : what is it?
A) inactive

Q) Reported activity change, negative = inhibition for NC(=O)c1ccc(NC(=O)COC(=O)c2ccc(Br)c(S(=O)(=O)N3CCOCC3)c2)cc1 : what is it?
A) inactive

Q) Reported activity change, negative = inhibition for C[C@H]1CN([C@@H](C)CO)C(=O)Cc2cc(NC(=O)Nc3ccccc3)ccc2O[C@@H]1CN(C)Cc1ccccc1 : what is it?
A) inactive

Q) Reported activity change, negative = inhibition for Cc1ccc(CN(c2ccc(C(=O)NCc3ccccn3)cc2)S(C)(=O)=O)cc1 : what is it?
A) inactive

Q) Reported activity change, negative = inhibition for CCOC(=O)C1(CCOc2ccccc2)CCN(Cc2cccc(F)c2)CC1 : what is it?
A) inactive

Q) Reported activity change, negative = inhibition for OCCC1CN(Cc2cccn2-c2ccccn2)CCN1C1CCCCC1 (stereo unspecified) : what is it?
A) inactive
